Origin of measurements: ChEMBL document CHEMBL1201862

Reported AC50 values follow for various molecules
# tested on: Paired box protein Pax-8 (Homo sapiens, UniProt Q06710)
# Sequence (Q06710 whole entry): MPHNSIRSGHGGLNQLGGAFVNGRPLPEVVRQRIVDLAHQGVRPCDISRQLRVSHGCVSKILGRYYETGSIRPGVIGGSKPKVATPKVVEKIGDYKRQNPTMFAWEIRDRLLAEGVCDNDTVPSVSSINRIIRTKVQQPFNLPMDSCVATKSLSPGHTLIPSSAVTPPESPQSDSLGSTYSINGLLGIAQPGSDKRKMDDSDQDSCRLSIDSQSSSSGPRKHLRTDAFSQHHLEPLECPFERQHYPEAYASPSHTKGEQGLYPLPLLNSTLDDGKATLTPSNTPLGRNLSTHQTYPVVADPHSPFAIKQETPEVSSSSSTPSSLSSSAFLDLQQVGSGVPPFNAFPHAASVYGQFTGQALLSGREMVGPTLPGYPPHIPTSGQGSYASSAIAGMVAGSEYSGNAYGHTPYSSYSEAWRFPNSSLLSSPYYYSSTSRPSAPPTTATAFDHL
# run description: inhibitors of PAX8-driven TPO luciferase reporter, dose response, RMG-I cells, cherry-pick (AID 687027);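 also: luciferase reporter driven by Pax8 target thyroperoxidase promoter measured by SteadyGlo luminescence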
# Type: functional, cell-based
The source made the active and inactive calls.

Examples from the recorded data:
{"columns": ["test smiles", "tested on", "AC50"],
 "data": [
  ["COc1ccc([N+](=O)[O-])c(S(=O)(=O)c2ccccc2)n1", "Paired box protein Pax-8 (Homo sapiens, UniProt Q06710)", "8.18 µM (active)"],
  ["COc1ccc(NC(=O)Nc2ccc3c(c2)C(=O)N([C@@H](C)CO)C[C@@H](C)[C@@H](CN(C)CC2CCCCC2)OCCCC[C@@H](C)O3)cc1", "Paired box protein Pax-8 (Homo sapiens, UniProt Q06710)", "14.5 µM (active)"],
  ["C[C@@H]1CCCCO[C@H](CN(C)Cc2ccc(Cl)c(Cl)c2)[C@H](C)CN([C@@H](C)CO)C(=O)c2cc(NC(=O)Nc3ccc(C(F)(F)F)cc3)ccc2O1", "Paired box protein Pax-8 (Homo sapiens, UniProt Q06710)", "5.49 µM (active)"],
  ["N#Cc1cccc(-c2ccc3c(c2)[C@@H]2[C@@H](CCN2C(=O)C2CCCCC2)[C@@H](CO)N3)c1", "Paired box protein Pax-8 (Homo sapiens, UniProt Q06710)", "17.8 µM (active)"],
  ["CSc1ccc(COC(=O)c2cc([N+](=O)[O-])ccc2N2CCOCC2)cc1", "Paired box protein Pax-8 (Homo sapiens, UniProt Q06710)", "0.619 µM (active)"],
  ["CCSc1nc(-c2ccccc2)nc(C(Cl)Cl)n1", "Paired box protein Pax-8 (Homo sapiens, UniProt Q06710)", "1.95 µM (active)"]
]}

Challenge: Field request: AC50 | item: `CC(=O)Nc1ccc(S(=O)(=O)c2ccnc3cc(Cl)ccc23)cc1`
Response given: 0.449 µM (active)

Challenge: Field request: AC50 | item: `C[C@H](CO)N1C[C@H](C)[C@@H](CN(C)Cc2ccc(C(F)(F)F)cc2)OCCCC[C@H](C)Oc2ccc(NC(=O)Nc3ccc(F)cc3)cc2C1=O`
Response given: 9.37 µM (active)

###

# System: H4
# run description: Luminescence Cell-Based Dose Response HTS to Identify Activators of 5'UTR Stem-Loop Driven Prion Protein mRNA Translation in H4 Neuroglioblastoma Cells. [Related pubchem assays: 1829 (Project Summary), 1814 (Primary HTS)]
# Assay type: functional
# assay setup: Homo sapiens
Activity calls are given as the source filed them.
Reported EC50 values follow for various compounds

{"columns": ["compound", "EC50"],
 "data": [
  ["COc1ccc2nc(N3CCN(C(=O)C4COc5ccccc5O4)CC3)sc2c1 (configuration not stated)", "12.8 µM (active)"],
  ["CCOC(=O)Cc1cc(-c2ccc(OC)cc2)nc2ccc3ccccc3c12", "15.6 µM (active)"]
]}

Challenge: Field request: EC50 | item: `CC(=N)/C(C#N)=C(/O)CSc1nnc(Nc2cccc(C)c2)s1`
Response given: > 120 µM (not active)

Challenge: Field request: EC50 | item: `O=C(/C=C/c1cccc(O)c1)c1ccc(N2CCOCC2)cc1`
Response given: > 120 µM (not active)

Challenge: Field request: EC50 | item: `Nn1c(CSc2ccccn2)nc2ccccc2c1=O`
Response given: 23.3 µM (active)

Challenge: Field request: EC50 | item: `Cc1ccc(CN2C(=O)N/C(=C/c3cc(C)n(-c4ccccn4)c3C)C2=O)cc1`
Response given: > 120 µM (not active)

Challenge: Field request: EC50 | item: `Nc1nc(-c2sc3nc4c(cc3c2N)CCCC4)nc(N2CCOCC2)n1`
Response given: > 120 µM (not active)
